growth values for the compounds below.
tested on: HCT-15 colon; assay: NCI-60 one-dose screen, 48 h (100 = growth as untreated, 0 = no growth, -100 = all killed); details: 10 µM unless noted
This is part of a sample that, as a whole, favours compounds with a hit. Of some 83,000 tested, about 20% had one in any assay.
Give the value, in units of %, as a plain number.

Example entries begin here.
1. Clc1ccc(COC(Cn2ccnc2)c2ccc(Cl)cc2Cl)cc1 (stereo not given) = 53
2. COc1ccc(/C=C/c2cc(OC)c(OC)c(OC)c2)cc1NC(=O)/C=C/c1ccc(F)cc1 = 25.2
3. Cn1cc(-c2csc(-c3cn(CCCCN4CCCCC4)c4ccccc34)n2)c2cccnc21 = -74.9
4. CCCCCCCCCCCCCC[P+](CCCCCC)(CCCCCC)CCCCCC = 7.54
5. C=CCn1cc(C=C2C(=O)N(C)C(=O)N(C)C2=O)c2ccccc21 = 106

C[C@@]12CC=C3c4nc(Nc5cccc(O)c5)sc4CC[C@]3(C)[C@H]1CC[C@]1(C)C(=O)CC[C@@H]21 has a reported growth of -47.9

ClCCN(CCCl)c1ccc(/C=N\N=C\c2ccc(N(CCCl)CCCl)cc2)cc1 has a reported growth of 37.3

COC(=O)C1OC(Oc2ccc(N(CCCl)CCCl)cc2)C(OC(C)=O)C(OC(C)=O)C1OC(C)=O (stereo not given) has a reported growth of 83.3

OCc1ccc2c(c1)OCO2 has a reported growth of 104

CNCc1cccnc1 has a reported growth of 108

====

growth values for the molecules below.
test system: OVCAR-8 ovarian; test: NCI-60 one-dose screen, 48 h (100 = growth as untreated, 0 = no growth, -100 = all killed); conditions: 10 µM unless noted
Compounds without any hit were thinned out: in the full panel of roughly 83,000, 20% have a hit.
Give the value, in units of %, as a plain number.

Example entries begin here.
1. CC1=C(CCCOC(=O)[C@H](N)CC(C)C)C2=C(C)C3(CC3)[C@@](C)(O)C(=O)C2=C1 = 3.99
2. N#CC1(c2ccccc2)CCN(Cc2ccccc2)CC1 = 104
3. COc1ccc(/C=C\c2cc(OC)c(OC)c(OC)c2)cc1NC(=O)/C=C/c1cc(OC)c(OC)c(OC)c1 = 68.8
4. CC(=O)OC[C@]1(C)C=C2C(=O)[C@](C)(O)C3(CC3)C(C)=C2[C@H]1OC(=O)N(C)CCN(C)C(=O)OC(C)(C)C = -12

Turning to the following molecule.
CN(C)C(=O)Oc1ccccc1-c1ccccc1 has a reported growth of 100

====

system: NCI/ADR-RES ovarian; test: NCI-60 one-dose screen, 48 h; conditions: 10 µM unless noted
Compounds without any hit were thinned out: in the full panel of roughly 83,000, 20% have a hit. Activity calls are given as the source filed them. The calls were made as follows: active = growth percent below 10; inactive = the rest.
Please reply with one of these outcomes: yes (1) = active, no (0) = inactive

Field: example entries. Status: answers known.
1. CC(=O)OC1CCC2C3CCC4=C/C(=N/OC(=O)c5ccc(N(CCCl)CCCl)cc5)CCC4(C)C3CC(C)C12 (centres undefined) = yes (1)
2. COc1cc(NCCCN=C(N)N)c2ncccc2c1 = no (0)
3. COc1ccc2nc(NC(=O)COc3cc(/C=C\c4cc(OC)c(OC)c(OC)c4)ccc3OC)sc2c1 = yes (1)
4. CC[C@H](C)[C@H](NC(=O)NC(C)(C)C)C(=O)N(C)[C@H](C[C@@H](OC(C)=O)c1nc(C(=O)N[C@@H](Cc2ccccc2)C[C@H](C)C(=O)OC)cs1)C(C)C = no (0)
5. CC(=O)OCC1O[C@@H]([S-])C(OC(C)=O)[C@H](OC(C)=O)[C@@H]1OC(C)=O.[Au+].c1ccc(CN2[CH-]N(Cc3ccccc3)C(c3ccccc3)=C2c2ccccc2)cc1 = no (0)

(Q) What outcome does the record of this test show for [Cl][Hg][c]1cc(Br)cc(Br)c1 ?
(A) no (0)

(Q) What outcome does the record of this test show for COC(=O)CC[C@H](Cc1ccccc1)NC(=O)c1csc([C@@H](C[C@H](C(C)C)N(C)C(=O)[C@@H](NC(=O)[C@H]2CCCCN2C)C(C)C)OC(C)=O)n1 ?
(A) no (0)

(Q) What outcome does the record of this test show for Fc1ccc(N2COOC3(OOC2)C2CC4CC(C2)CC3C4)cc1 ?
(A) no (0)

(Q) What outcome does the record of this test show for Cc1ccc(N2COOC3(OOC2)C2CC4CC(C2)CC3C4)cc1 ?
(A) no (0)

(Q) What outcome does the record of this test show for CO[C@H](C(=O)O)[C@@H]1Cc2cc3cc(OC4CC(OC5CC(O)C(O)C(C)O5)C(O)C(C)O4)c(C)c(O)c3c(O)c2C(=O)[C@H]1OC1CC(OC2CC(OC3CC(C)(O)C(O)C(C)O3)C(O)C(C)O2)C(O)C(C)O1 (some centres undefined) ?
(A) no (0)

(Q) What outcome does the record of this test show for O=P(Oc1ccc(Cl)cc1)(N1CC1)N1CC1 ?
(A) no (0)

(Q) What outcome does the record of this test show for CC(=O)OC[C@]1(C)C=C2C(=O)[C@](C)(O)C3(CC3)C(C)=C2[C@H]1OC(=O)N(C)CCN(C)C(=O)OC(C)(C)C ?
(A) yes (1)

(Q) What outcome does the record of this test show for COc1cc([N+](=O)[O-])c2nc(C)ccc2c1[N+](=O)[O-] ?
(A) no (0)

(Q) What outcome does the record of this test show for CC(=O)O[C@H](C[C@H](C(C)C)N(C)C(=O)[C@@H](NC(=O)[C@H]1CCCCN1C)C(C)C)c1nc(C(=O)N[C@@H](Cc2ccccc2)C[C@H](C)C(=O)O)c(C(C)C)s1 ?
(A) yes (1)

(Q) What outcome does the record of this test show for CC(C)[C@]12O[C@H]1[C@@H]1O[C@]13[C@]1(O[C@H]1C[C@H]1c4c(C(=O)c5ccccc5)oc(OC(=O)c5ccccc5)c4CC[C@@]13C)[C@@H]2O ?
(A) yes (1)

(Q) What outcome does the record of this test show for Cc1cccc(N2CCN(C(C)C#N)CC2)c1 (centres undefined) ?
(A) no (0)

====

test system: NCI/ADR-RES ovarian; assay: NCI-60 one-dose screen, 48 h; settings: 10 µM unless noted
About 83,000 compounds went through this panel and 20% of them were active in at least one assay; those are over-represented in the sample as a whole. Calls of active or inactive are those of the source. Rule for the calls: active = growth percent below 10; inactive = the rest.
Please reply with one of these outcomes: active, inactive

Field: example entries. Status: answers known.
1) CC[C@@H]1[C@@H](C)O[C@@](O)([C@@H](C)[C@H](O)[C@H](C)[C@H]2OC(=O)/C=C/C=C/[C@H](C)[C@@H]([C@@H](C)[C@@H](O)[C@H](C)[C@@]3(O)C[C@@H](O[C@H]4C[C@@H](O)[C@H](O)C(C)O4)[C@H](CC)[C@@H](C)O3)OC(=O)/C=C/C=C/[C@@H]2C)C[C@H]1O[C@@H]1C[C@@H](O)[C@H](O)C(C)O1 (stereo partly specified) = active
2) C=CCn1cc(C=C2C(=O)N(C)C(=O)N(C)C2=O)c2ccccc21 = inactive
3) CC12CCC=CC1CCC1C2CCC2(C)C(c3ccc(=O)oc3)CCC12O (stereo unspecified) = active
4) CC1(C)N=C(N)N=C(N)N1c1cccc(CCCCc2ccc(Cl)c(S(=O)(=O)F)c2)c1 = inactive

(Q) What outcome does the record of this test show for C/C(=C\c1ccn(-c2ccc(N)cc2)n1)[C@@H]1C[C@@H]2O[C@]2(C)CCC[C@H](C)[C@H](O)[C@@H](C)C(=O)C(C)(C)[C@@H](O)CC(=O)O1 ?
(A) active

(Q) What outcome does the record of this test show for COc1ccc2c(c1)c(-c1nc(-c3c[nH]c4ncccc34)cs1)cn2CCN1CCOCC1 ?
(A) inactive

====

system: MALME-3M melanoma; experiment: NCI-60 one-dose screen, 48 h (100 = growth as untreated, 0 = no growth, -100 = all killed); conditions: 10 µM unless noted
The panel holds about 83,000 compounds, 20% with a hit somewhere; the sample as a whole holds those more often.
Lab note - cut at 80% for growth: YES if strictly below, NO if not.

Field: example entries. Status: answers known.
1) CNC(=O)Oc1ccc2c(c1)OCO2 = NO
2) COc1ccc(/C=C\c2cc(OC)c(OC)c(OC)c2)cc1NC(=O)/C=C/c1ccc(OC)c(OC)c1 = YES
3) Cc1cc(-c2nc3cc(F)ccc3[se]2)cc(F)c1N = NO
4) CN[C@]1(c2ccccc2Cl)CCCC[C@H]1NCCCN1CCN(C)CC1 = NO
5) CCOC(=O)[C@@H](C)C[C@H](Cc1ccccc1)NC(=O)c1csc([C@@H](C[C@H](C(C)C)N(C)C(=O)CNC(=O)[C@H]2CCCCN2C)OC(C)=O)n1 = YES
6) O=C(O)c1c(Cl)n(Cc2ccc(O)cc2)c2ccc(O)cc12 = NO

(Q) is_below(growth, 80%) for CC12CC(=O)C3(SC#N)C(CCC4=CC(=O)CCC43C)C1CCC2=O (stereo not given) ?
(A) YES

(Q) is_below(growth, 80%) for COC(=O)[C@@H](C)C[C@H](Cc1ccccc1)NC(=O)c1csc([C@@H](C[C@H](C(C)C)N(C)C(=O)C2(NC(=O)[C@H]3CCCCN3C)CCC2)OC(C)=O)n1 ?
(A) YES

(Q) is_below(growth, 80%) for c1cnc2[nH]cc(-c3csc(-c4cn(CCCCN5CCOCC5)c5ccccc45)n3)c2c1 ?
(A) YES

Cited source for all entries: PubChem BioAssay (NCI)
